experimentalDetails: RP, Phenomenex Kinetex C18, 100 × 2.1 mm, 1.7 µm, 40 °C, 0.5 mL/min, estimated dead time 0.44 min; A: water + 1 mM ammonium fluoride; B: acetonitrile; gradient (min/%B) 0/10 2/10 22/100 27/100 27.1/10
experimentalContext: stereoisomer not certain
measuredQuantity: LC retention time (min)

molecule: CC(CCC(=O)O)C1CCC2C3CCC4CC(O)CCC4(C)C3CCC12C (stereo not given)
testValue: 13.1
--
molecule: CC(CC(=O)O)C1CCC2C3CCC4CC(O)CCC4(C)C3CC(O)C12C (stereo not given)
testValue: 9.58
--
molecule: CC(CCC(=O)NCCS(=O)(=O)O)C1CCC2C3CCC4CC(O)CCC4(C)C3CCC12C (stereo not given)
testValue: 9.12
--
molecule: CCCCCCCCCC(=O)O
testValue: 10.3
--
molecule: CC(CCCC(C)C1CCC2=C3C=CC4=CC(=O)CCC4(C)C3CCC21C)C(=O)O [(25S)-d4,6,8(14)-Dafachronic acid]
testValue: 14.3
--
molecule: CC(CCC(=O)NCCS(=O)(=O)O)C1CCC2C3C(O)CC4CC(O)CCC4(C)C3CC(O)C12C (stereo not given)
testValue: 6.97
--
molecule: CC(CCCC(C)C1CCC2C3CCC4CC(=O)C=CC4(C)C3CCC12C)C(=O)O [(25S)-d1-Dafachronic acid]
testValue: 15.9
--
molecule: CC(CCCC(C)C1CCC2C3CCC4=CC(=O)C=CC4(C)C3CCC12C)C(=O)O [(25S)-d1,4-Dafachronic acid]
testValue: 14.5
--
molecule: CC(CCC(=O)NCCS(=O)(=O)O)C1CCC2C3CCC4CC(O)CCC4(C)C3CC(O)C12C (stereo not given)
testValue: 8.04
--
molecule: CC(CCCC(C)C1CCC2C3C(O)CC4=CC(=O)CCC4(C)C3CCC12C)C(=O)O (stereo not given) [7-Hydroxy-3-oxo-Cholest-4-en-26-oic Acid]
testValue: 12

[1] C[C@H](CCC(=O)O)[C@H]1CC[C@H]2[C@@H]3CC[C@@H]4CC(=O)CC[C@]4(C)[C@H]3CC[C@]12C
[2] CC(CCC(=O)O)C1CCC2C3C(O)CC4CC(O)CCC4(C)C3CC(=O)C12C (stereo not given)
Req: Larger number for LC retention time: 1 , or 2 ? Give the chosen item's label as your response.
Resp: 1

[A] CC(CCC(=O)O)C1CCC2C3C(=O)CC4CC(O)CCC4(C)C3CCC12C (stereo not given)
[B] CC(CCCC(C)C1CCC2=C3CCC4CC(=O)CCC4(C)C3CCC21C)C(=O)O [(25S)-d8(14)-Dafachronic acid]
Req: Among A and B , which shows a numerically higher LC retention time result? Use the label to indicate which entry you chose.
Resp: B
(B: 15.9 min, A: 9.67 min)

###

experimentalDetails: RP, Phenomenex Kinetex C18, 100 × 2.1 mm, 1.7 µm, 40 °C, 0.5 mL/min, estimated dead time 0.44 min; A: water + 1 mM ammonium fluoride; B: acetonitrile; gradient (min/%B) 0/10 2/10 22/100 27/100 27.1/10
experimentalContext: stereoisomer not certain
Counter-ions that a name gives are not always drawn.
measuredQuantity: LC retention time (min)

Consider the reported LC retention time for these molecules:
molecule: CC(CCC(=O)NCC(=O)O)C1CCC2C3CCC4CC(O)CCC4(C)C3CCC12C (configuration not stated) [Glycolithocholic Acid sodium salt]
LC retention time / min: 9.22
//
molecule: CC(CCC(=O)O)C1CCC2C3C(=O)CC4CC(=O)CCC4(C)C3CC(=O)C12C (configuration not stated) [Dehydrocholic acid]
LC retention time / min: 7.14
//
molecule: CC(CCC(=O)NCC(=O)O)C1CCC2C3CC(O)C4CC(O)CCC4(C)C3CCC12C (configuration not stated)
LC retention time / min: 6.88

[A] CC(CCC(=O)NCC(=O)O)C1CCC2C3CCC4CC(O)CCC4(C)C3CC(O)C12C (configuration not stated)
[B] CC(CCC(=O)NCC(=O)O)C1CCC2C3C(=O)CC4CC(=O)CCC4(C)C3CC(=O)C12C (configuration not stated) [Glycodehydrocholic acid]
[C] CC(CCCC(C)C1CCC2C3=CCC4CC(=O)C=CC4(C)C3CCC21C)C(=O)O [(25S)-d1,7-Dafachronic acid]
Req: Task field, ranking: reported LC retention time, descending order. In your reply, arrange the labels in the requested order.
Resp: C, A, B
